Source listed as PubChem BioAssay AID463229.

- System: INS-1E rat beta cells, no cytokines, CellTiter-Glo ATP, 48 h
- protocol-details: cytokine-free beta-cell viability effect – INS-1E rat cells, ATP luminescence, cherry pick, counter-screen for beta-cell apoptosis protection project, dose response (AID 463229)
observable: AC50

COc1ccc(CC(=O)Nc2cccc(-c3nnc(-c4cccc(C)c4)o3)c2)cc1OC; 3.46 µM
Cc1cc(S(=O)(=O)NCc2ccncc2)c(C)cc1Br; 6.19 µM
Cc1cc(C)cc(NC(=O)/C(C#N)=C/c2cn(CC(=O)NCc3ccco3)c3ccccc23)c1; 5.06 µM
CCC(C)(C)c1ccc(OCCCC[n+]2ccccc2)c(C(C)(C)CC)c1; 2.27 µM
Cc1cc(C(=O)NC2CCCc3c2cnn3-c2ccc(C)c(C)c2)n(C)n1 (stereo not drawn); 0.378 µM
Cc1ccc(-n2c(-c3ccc(Br)cc3)c[n+]3c2CCc2ccc4cccnc4c2-3)cc1; 0.482 µM
Oc1ccc(Br)cc1/C=N/Nc1ccccn1; 4.28 µM
CCOC(=O)c1cnc(-n2nc(C)cc2C)nc1NNc1nc(-c2ccccc2)cc(-c2ccccc2)n1; 4.09 µM

The measured AC50 associated with `COc1cc(NC(=O)c2ccccc2NS(=O)(=O)c2ccc(Cl)s2)cc(OC)c1` reads 6.97 µM

The measured AC50 associated with `c1ccc2c(CN3CCCCCC3)c[nH]c2c1` reads 3.61 µM

The measured AC50 associated with `Cc1ccccc1N1CCN(Cc2c[nH]c3ccccc23)CC1` reads 7.37 µM

The measured AC50 associated with `Oc1c(CN2CCN(c3ccccn3)CC2)cc(Cl)c2cccnc12` reads 5.4 µM

The measured AC50 associated with `COc1ccc(CCNc2ncnc3sccc23)cc1OC` reads 1.13 µM

* * *

- Test system: INS-1E rat beta cells, no cytokines, CellTiter-Glo ATP, 48 h
- protocol-details: cytokine-free beta-cell viability effect – INS-1E rat cells, ATP luminescence, cherry pick, counter-screen for beta-cell apoptosis protection project, dose response (AID 463229)
observable: AC50

Answered cases to consult:
CC(C)C(=O)NC(c1ccccc1)c1cc([N+](=O)[O-])c2cccnc2c1O (stereo unspecified); 10.6 µM
Cc1ccc2nc(NC(=O)/C=C/c3ccc4c(c3)OCO4)sc2c1; 7.35 µM
C=CC[n+]1c(-c2ccc(OCC)cc2)csc1NNC(=O)Nc1ccccc1; 12.1 µM
CNc1nc2cc([N+](=O)[O-])c([N+](=O)[O-])cc2nc1NC; 0.278 µM
C[n+]1c2n(c3ccccc31)N=C(c1ccc(Cl)cc1)CS2; 4.29 µM
CCOC(=O)c1c(CSc2nc(C)cc(C)c2C#N)n(C)c2cc(Br)c(OC(C)=O)cc12; 3.73 µM
CC1CC(C)CN(S(=O)(=O)c2ccc(C(=O)NCCCn3ccnc3)cc2)C1 (stereo unspecified); 0.577 µM
COC(=O)c1ccc2c(=O)n(-c3ccccc3)c(SCN3C(=O)c4ccccc4C3=O)nc2c1; 3.86 µM

The measured AC50 associated with `Cc1ccc(N2C(=O)NC(=O)/C(=C\C=C\c3ccco3)C2=O)cc1C` reads 5.85 µM

The measured AC50 associated with `COc1cc2sc(-c3ccccc3OC)c(-c3ccc(OCCN4CCCCC4)cc3)c2cc1OC` reads 7.57 µM

The measured AC50 associated with COc1cccc(F)c1C(C[N+](=O)[O-])c1c(N)n(C)c(=O)n(C)c1=O (stereo unspecified) reads 8.3 µM
